- System: Saccharomyces cerevisiae
- test_description: protein stability index of tFT-peptide fusion (C-terminal peptide) (PSI (0-1 scale)); higher = more stable (slower turnover)
- test_context: genetic background: wild type; temperature: 30 C
Answer each item with its documented protein stability index.
Keep it simple and answer with nothing but the number.

Reported protein stability index for NVEDEYSYSLTL [VPS68 C-terminal 12 aa] : what is it?
0.706

Return reported protein stability index; argument: KFKIQNILNSTF [SIP4 C-terminal 12 aa]
0.711

Would you mind telling me what protein stability index value was observed for LDQFEINSDGEE [NCS2 C-terminal 12 aa] ?
0.709

Look at this sequence and give its reported protein stability index. LIMELAVNSQSN [SNF1 C-terminal 12 aa]
0.691

Which protein stability index is reported for this sequence? EGEHEQVLENFQ [GUT1 C-terminal 12 aa]
0.676

What does the record list as protein stability index for RQNTLSLWRYRK [RPL15A C-terminal 12 aa] ?
0.682

// query protein stability index value for entry EANFWTAALEYE [THI21 C-terminal 12 aa]
0.686

Request the reported protein stability index associated with NKTICLRNYHWL [YIR017W-A C-terminal 12 aa]
0.607

For the sequence shown here, FGDNSKHKTDKI [BOI2 C-terminal 12 aa] , give the reported protein stability index.
0.685

Requested field: protein stability index. Item: IEEAASSLGFKR [PES4 C-terminal 12 aa]
0.701

# query: protein stability index of entry GGPFPYYFNTFC [YKL169C C-terminal 12 aa]
0.53

Look up protein stability index: DFLTLVQTNSDT [YPL250W-A C-terminal 12 aa]
0.722
